B1: HDV Ribozyme (parent)
chain: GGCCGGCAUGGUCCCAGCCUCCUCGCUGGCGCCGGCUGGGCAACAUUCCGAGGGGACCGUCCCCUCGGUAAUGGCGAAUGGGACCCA

# Variants of: B1
# METHOD DESCRIPTION: self-cleavage, relative activity (ratio to wild type); higher = more cleavage; co-transcriptional
If the reported self-cleavage equals or exceeds 0.3, assign condition met. If not, assign condition not met.

>>> assigned_category("C48U G55C")
"condition met"
>>> assigned_category("C36U G53U")
"condition met"
>>> assigned_category("G5A U12G")
"condition not met"
>>> assigned_category("C7G C26G")
"condition met"
>>> assigned_category("G1U C19A")
"condition met"
>>> assigned_category("G25A A83C")
"condition not met"
>>> assigned_category("A16U A71U")
"condition met"
>>> assigned_category("C3U A83G")
"condition met"
>>> assigned_category("A8U G50C")
"condition met"
>>> assigned_category("C33G C57G")
"condition not met"
>>> assigned_category("G5U A8G")
"condition met"
>>> assigned_category("G5C G38A")
"condition not met"
>>> assigned_category("C4G C33G")
"condition not met"
>>> assigned_category("C36A C49A")
"condition not met"
>>> assigned_category("C41A C49A")
"condition met"
>>> assigned_category("U46A U65A")
"condition met"
>>> assigned_category("C18G C32A")
"condition not met"
>>> assigned_category("C21A G82U")
"condition not met"
>>> assigned_category("U12A C18U")
"condition not met"
>>> assigned_category("G39A G74C")
"condition not met"
>>> assigned_category("C13U C33U")
"condition met"
>>> assigned_category("C33G G34U")
"condition not met"
>>> assigned_category("C57G C85A")
"condition met"
>>> assigned_category("C86U A87C")
"condition met"
>>> assigned_category("C32G C64U")
"condition not met"
>>> assigned_category("C4G A8G")
"condition met"
>>> assigned_category("U20G G55A")
"condition met"
>>> assigned_category("G17C C22A")
"condition not met"
>>> assigned_category("C48G C85A")
"condition met"
>>> assigned_category("C57U G74C")
"condition not met"
>>> assigned_category("U20A G25A")
"condition not met"
>>> assigned_category("C48U G74U")
"condition met"
>>> assigned_category("C24U G53A")
"condition met"
>>> assigned_category("C26G G55U")
"condition met"
>>> assigned_category("G10C U79G")
"condition met"
>>> assigned_category("C19G G39U")
"condition not met"
>>> assigned_category("U79C C86G")
"condition not met"
>>> assigned_category("C24U C49A")
"condition met"
>>> assigned_category("U69A U79G")
"condition met"
>>> assigned_category("U27C G39U")
"condition met"
>>> assigned_category("G11U G55A")
"condition met"
